- SYSTEM_TESTED: human PRMT6 (Homo sapiens)
- Construct: Flag-PRMT6-His; made in house; host or cells: HEK 293F cells (BacMam baculovirus)
- Sequence (Q96LA8 with tags, fused parts or gaps): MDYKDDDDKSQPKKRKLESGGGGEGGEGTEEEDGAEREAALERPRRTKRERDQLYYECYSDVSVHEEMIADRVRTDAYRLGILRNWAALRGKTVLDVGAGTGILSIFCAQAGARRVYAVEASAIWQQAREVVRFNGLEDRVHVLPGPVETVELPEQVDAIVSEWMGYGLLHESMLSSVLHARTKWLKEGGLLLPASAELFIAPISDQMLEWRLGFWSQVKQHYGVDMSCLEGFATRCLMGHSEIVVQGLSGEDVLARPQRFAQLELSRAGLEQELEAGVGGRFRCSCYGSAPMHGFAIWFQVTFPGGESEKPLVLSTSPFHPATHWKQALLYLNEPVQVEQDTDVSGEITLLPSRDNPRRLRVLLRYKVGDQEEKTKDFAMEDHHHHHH
- MEASUREMENT_PROTOCOL: PRMT6 Biochemical Assay (3H-SAM Flashplate, peptide substrate)
- TEST_CONTEXT: Biochemical IC50 PRMT6, single experiment or average of multiple experiments
ENDPOINT_NAME: IC50 (nM)

Illustrative cases are given below, each with its answer.
>>> recorded_measurement("CNCCN(C)Cc1c[nH]nc1-c1cccc(OC(F)(F)F)c1")
37.8
>>> recorded_measurement("Cc1cc(-c2n[nH]cc2CN(C)CCN)cc(C)c1OC(C)C")
103
>>> recorded_measurement("CNCCN(C)Cc1cn(C2CCCCC2)nc1-c1ccc(OC(C)C)cc1")
921
>>> recorded_measurement("CN(CCN)Cc1cn(CC2CCOCC2)nc1-c1ccc(F)cc1")
2370
>>> recorded_measurement("CN(CCN)Cc1n[nH]cc1-c1ccc(Oc2ccccc2)cc1")
2.42

(A) CNCCN(C)Cc1c[nH]nc1-c1ccc(OC2CCOCC2)cc1
(B) CNCCN(C)Cc1n[nH]cc1-c1ccc(Oc2cccc(C(C)C)c2)cc1
Between A and B , which one shows the smaller IC50 number? Your answer should be the label of the entry you select.
B
(B: 1.66 nM, A: 12.5 nM)

* * *

- SYSTEM_TESTED: human PRMT1 (Homo sapiens)
- Construct: GST-tagged PRMT1; made in house; host or cells: High Five insect cells (baculovirus)
- Sequence (Q99873 with tags, fused parts or gaps): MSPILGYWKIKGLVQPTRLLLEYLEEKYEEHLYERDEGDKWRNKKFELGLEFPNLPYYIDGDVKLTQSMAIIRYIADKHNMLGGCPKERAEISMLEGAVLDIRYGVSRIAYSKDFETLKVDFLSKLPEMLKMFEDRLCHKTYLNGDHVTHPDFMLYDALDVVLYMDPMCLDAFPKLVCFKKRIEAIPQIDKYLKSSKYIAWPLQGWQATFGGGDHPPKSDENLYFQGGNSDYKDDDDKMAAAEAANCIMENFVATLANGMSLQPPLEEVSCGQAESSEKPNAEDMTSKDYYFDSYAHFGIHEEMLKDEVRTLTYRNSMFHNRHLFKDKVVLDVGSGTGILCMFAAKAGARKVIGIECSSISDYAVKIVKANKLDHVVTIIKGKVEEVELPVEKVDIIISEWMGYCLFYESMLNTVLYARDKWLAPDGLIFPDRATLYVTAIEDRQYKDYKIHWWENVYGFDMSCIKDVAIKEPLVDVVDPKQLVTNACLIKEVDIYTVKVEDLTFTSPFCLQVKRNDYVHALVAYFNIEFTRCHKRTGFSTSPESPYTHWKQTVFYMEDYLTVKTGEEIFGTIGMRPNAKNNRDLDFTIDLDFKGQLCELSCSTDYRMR
- MEASUREMENT_PROTOCOL: PRMT1 Biochemical Assay (3H-SAM Flashplate, peptide substrate)
- TEST_CONTEXT: single experiment or average of multiple experiments
ENDPOINT_NAME: IC50 (µM)

>>> recorded_measurement("COc1ccc(-c2n[nH]cc2CN(C)CCN)c(C(F)(F)F)c1")
0.66
>>> recorded_measurement("CN(CCN)Cc1n[nH]cc1-c1ccc(F)cc1")
0.0511
>>> recorded_measurement("CC[C@H](C)Oc1ccc(-c2n[nH]cc2CN(C)CCNC)cc1")
0.0067

(A) CNCCN(C)Cc1cn(C)nc1-c1ccc(Oc2ccccc2)cc1
(B) C=C(C)C(=O)Nc1cccc(-c2[nH]ncc2CN(C)CCNC)c1
(C) Cc1cc(F)ccc1-c1n[nH]cc1CN(C)CCN
(D) CN(CCN)Cc1c[nH]nc1-c1cccc(C#N)c1
(E) CN(CCN)Cc1c[nH]nc1-c1ccc(F)cc1F
Order these by IC50, descending, and give the full ranking. Form entry: labels listed in requested order.
D, B, E, C, A
(D: 0.2 µM, B: 0.135 µM, E: 0.0902 µM, C: 0.0472 µM, A: 0.00616 µM)

(A) CNCCN(C)Cc1c[nH]nc1-c1ccc(Oc2ncccn2)cc1
(B) COc1ccc(-c2n[nH]cc2CN(C)CCN)c(C)c1
// compare measured IC50, left A , right B , return larger Your answer should be the label of the entry you select.
B
(B: 0.0599 µM, A: 0.0334 µM)

* * *

- SYSTEM_TESTED: human PRMT1 (Homo sapiens)
- Construct: GST-tagged PRMT1; made in house; host or cells: High Five insect cells (baculovirus)
- MEASUREMENT_PROTOCOL: PRMT1 Biochemical Assay (3H-SAM Flashplate, peptide substrate)
- TEST_CONTEXT: single experiment or average of multiple experiments
pIC50: −log10 of the molar value.
ENDPOINT_NAME: pIC50

Illustrative cases are given below, each with its answer.
>>> recorded_measurement("CC(=O)c1cccc(-c2n[nH]cc2CN(C)CCN)c1")
7.09
>>> recorded_measurement("CN(CCN)Cc1c[nH]nc1-c1ccc(Oc2ccccc2)c(C(=O)N(C)C)c1")
7.57
>>> recorded_measurement("Cc1ccc(C#N)cc1-c1n[nH]cc1CN(C)CCN")
5.63
>>> recorded_measurement("COc1ccc(F)cc1-c1n[nH]cc1CN(C)CCN")
6.78
>>> recorded_measurement("CNCCN(C)Cc1n[nH]cc1-c1ccc(Oc2cccc(C#N)c2)cc1")
8.46

(P) CN(CCN)Cc1n[nH]cc1-c1ccc(Cl)cc1
(Q) CNCCN(C)Cc1c[nH]nc1-c1ccc(OC2CC(OC)C2)cc1 (stereo not shown)
Between P and Q , which one shows the smaller pIC50 number? Your answer should be the label of the entry you select.
Q

(A) CNCCN(C)Cc1c[nH]nc1-c1ccc(OCCOC)cc1
(B) CCCc1ccc(-c2n[nH]cc2CN(C)CCNC)cc1
// compare measured pIC50, left A , right B , return larger Your answer should be the label of the entry you select.
B
(B: 8.39, A: 7.67)

(1) CNCCN(C)Cc1c[nH]nc1-c1ccc(Oc2ccccc2)c(C#N)c1 [Compound 234]
(2) CNCCN(C)Cc1c[nH]nc1-c1ccc(Cl)c(F)c1
// compare measured pIC50, left 1 , right 2 , return larger Your answer should be the label of the entry you select.
2
(2: 8.32, 1: 8.11)
